- target-entity: human full-length MKNK1 (Homo sapiens, UniProt Q9BUB5, T385D)
- Construct: GST (N); purchased Carna Biosciences 02-145; host or cells: insect cells (baculovirus expression system)
- Sequence (Q9BUB5 1-424 isoform Q9BUB5-2 T344D): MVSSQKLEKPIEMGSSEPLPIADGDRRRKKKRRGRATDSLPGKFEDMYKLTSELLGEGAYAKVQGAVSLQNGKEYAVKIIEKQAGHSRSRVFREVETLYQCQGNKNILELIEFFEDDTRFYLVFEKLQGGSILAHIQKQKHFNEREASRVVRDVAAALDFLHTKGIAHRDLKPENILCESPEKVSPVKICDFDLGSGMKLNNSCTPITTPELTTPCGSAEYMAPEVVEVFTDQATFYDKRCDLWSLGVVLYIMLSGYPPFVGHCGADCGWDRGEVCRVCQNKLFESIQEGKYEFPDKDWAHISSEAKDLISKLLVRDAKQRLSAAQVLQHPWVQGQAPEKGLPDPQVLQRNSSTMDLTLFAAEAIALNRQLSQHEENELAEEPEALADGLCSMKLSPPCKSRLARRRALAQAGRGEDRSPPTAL
- experiment: MKNK1 kinase high ATP assay (TR-FRET)
- Format: biochemical
- assay-conditions: high ATP (2 mM final), 15 min preincubation with enzyme, GST-MKNK1 (T344D)
measured-property: IC50 (nM)

Would you please look over these solved cases?
CSc1cc2[nH]ncc2cc1Nc1ncnc2sc3c(c12)CCN(C(=O)OC(C)(C)C)C3 :: 16
CN(C)C(=O)N1CCc2c(sc3ncnc(Nc4ccn5nccc5c4)c23)C1 :: 484
COc1cc2[nH]ncc2cc1Nc1ncnc2sc3c(c12)CCN(C(=O)N1CCOC[C@@H]1C)C3 :: 3
COc1nc2[nH]ncc2cc1Nc1ncnc2sc3c(c12)CCN(C(=O)N(C)C)C3 :: 5
COc1cc2[nH]ncc2cc1Nc1ncnc2sc3c(c12)CCN(CC(F)(F)F)C3 :: 99
c1nc(Nc2cnc3[nH]ncc3c2)c2c3c(sc2n1)CN(CCN1CCOCC1)CC3 :: 119

a: CN(C)C(=O)N1CCc2c(sc3ncnc(Nc4cc5cn[nH]c5cc4Cl)c23)C1
b: COc1cc2[nH]ncc2cc1Nc1ncnc2sc3c(c12)CCN(C(=O)N1C[C@@H](C)O[C@@H](C)C1)C3
Exam item: Which record shows the lower IC50: the first, a , or the second, b ? Write down the label of the entry you select.
Marked response: b

A: CC(C)(C)OC(=O)N1CCc2c(sc3ncnc(Nc4ccc5[nH]ncc5c4)c23)C1
B: C[C@@H]1CN(C(=O)N2CCc3c(sc4ncnc(Nc5ccc6[nH]c(=O)sc6c5)c34)C2)C[C@H](C)O1
Exam item: Lab note: record which item had the higher IC50, A or B . Could you answer with the label of the item you picked?
Marked response: B
(B: 59 nM, A: 18 nM)
